- assay.system: T1, human CD47 on cells (SHP-77 tumor cells, human red blood cells, CCRF-CEM cells, human CD47 CHO-K1 stable cell … (human, UniProt Q08722 19-323))
- T1 construct: whole, on cells; also called RBC
- assay.explanation: flow cytometry on human CD47 CHO-K1 cells
Quick list: pEC50 per entry.
Reminder that pEC50 means the negative base-10 logarithm of the concentration expressed in mol/L.

The examples below pair each entry with its known result.
binder: 108VH5.M27 / 108VL1.M5 (antibody, human IgG4 S228P, kappa, V domains shown, Full-length IgG4 (S228P), kappa; also called VH5.M27 VL1.M5) VH: EVQLVQSGAEVKKPGASVKVSCKASGYTFTHHWMHWVRQAPGQGLEWMGMIDASDYETRYAQKFQGRVTMTRDTSTSTVYMELSSLRSEDTAVYYCARLGRYYFDYWGQGTLVTVSS VL: EIVLTQSPATLSLSPGERATLSCRASQSVSSYLAWYQQKPGQAPRLLIYGASNRATGIPARFSGSGSGTDFTLTISSLEPEDFAVYYCGESYGHLYTFGGGTKVEIKR
pEC50: 8.59

binder: 108VH5.M22 / 108VL1.M5 (antibody, human IgG4 S228P, kappa, V domains shown, Full-length IgG4 (S228P), kappa; also called VH5.M22 VL1.M5) VH: EVQLVQSGAEVKKPGASVKVSCKASGYTFTHHWMHWVRQAPGQGLEWMGMIDASDIETRYAQKFQGRVTMTRDTSTSTVYMELSSLRSEDTAVYYCARLGRYYFDYWGQGTLVTVSS VL: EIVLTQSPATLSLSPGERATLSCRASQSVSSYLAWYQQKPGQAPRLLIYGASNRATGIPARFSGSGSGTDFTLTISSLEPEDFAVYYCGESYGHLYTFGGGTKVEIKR
pEC50: 8.44

binder: 108VH5.M16 / 108VL1.M5 (antibody, human IgG4 S228P, kappa, V domains shown, Full-length IgG4 (S228P), kappa; also called VH5.M16 VL1.M5) VH: EVQLVQSGAEVKKPGASVKVSCKASGYTFTHHWMHWVRQAPGQGLEWMGMIDASDGETRYAQKFQGRVTMTRDTSTSTVYMELSSLRSEDTAVYYCARLGRYYFDYWGQGTLVTVSS VL: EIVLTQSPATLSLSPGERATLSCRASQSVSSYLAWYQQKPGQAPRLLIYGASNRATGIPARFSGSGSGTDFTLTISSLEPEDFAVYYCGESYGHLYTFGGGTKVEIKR
pEC50: 8.72

binder: 108VH5.M23 / 108VL1.M5 (antibody, human IgG4 S228P, kappa, V domains shown, Full-length IgG4 (S228P), kappa; also called VH5.M23 VL1.M5) VH: EVQLVQSGAEVKKPGASVKVSCKASGYTFTHHWMHWVRQAPGQGLEWMGMIDASDKETRYAQKFQGRVTMTRDTSTSTVYMELSSLRSEDTAVYYCARLGRYYFDYWGQGTLVTVSS VL: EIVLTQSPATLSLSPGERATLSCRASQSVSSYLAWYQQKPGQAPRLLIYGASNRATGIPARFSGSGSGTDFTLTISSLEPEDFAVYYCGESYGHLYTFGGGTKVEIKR
pEC50: 8.57

(Q) Please report pEC50 for the following binder: 108VH4.M4-VL1.M1 (antibody, V domains shown, also called original humanized 108C10A6 antibody) VH: EVQLVQSGAEVKKPGSSVKVSCKASGYSFTHHWIHWVRQAPGQGLEWMGMIDASDSETRLSQKFKDRVTITADKSTSTAYMELSSLRSEDTAVYYCARLGRYYFDYWGQGTTVTVSS VL: EIVLTQSPATLSLSPGERATLSCRASENVGTYISWYQQKPGQAPRLLIYGASNRYTGIPARFSGSGSGTDFTLTISSLEPEDFAVYYCGESYGHLYTFGGGTKVEIK
(A) 8.59
